- ASSAYED SYSTEM: T1, 4H2620-AA
- T1 chain: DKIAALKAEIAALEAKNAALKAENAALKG
- MEASUREMENT NOTES: two-hybrid library CCmax;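 also: natural log of median RNA to DNA barcode read ratio; higher means stronger binding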
- APPLIED CONDITIONS: mean of both orientations
Please go through the items and note down their interaction score.
Could you keep your reply to the number by itself?

**Q:** Would you mind telling me what interaction score value was observed for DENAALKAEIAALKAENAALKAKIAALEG [4H1629-AA] ?
**A:** -1.66

**Q:** Would you mind telling me what interaction score value was observed for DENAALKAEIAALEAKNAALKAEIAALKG [4H1594-AA] ?
**A:** -1.5

**Q:** Would you mind telling me what interaction score value was observed for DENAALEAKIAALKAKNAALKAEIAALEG [4H1401-AA] ?
**A:** -1.63

**Q:** Would you mind telling me what interaction score value was observed for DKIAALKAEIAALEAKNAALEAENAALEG [4H2611-AA] ?
**A:** 0.167
